measured_target: T1, human 5T4 (32-355) tagged with poly-his at the C-terminus (ACROBiosystems, CAT #TPG-H52E5) (human, UniProt Q13641 32-355)
T1 construct: range 32-355; Bought protein; also called recombinant human 5T4; recombinant 5T4 Ser32-Ser355; not shown: C-terminal poly-his tag
T1 sequence (looked up): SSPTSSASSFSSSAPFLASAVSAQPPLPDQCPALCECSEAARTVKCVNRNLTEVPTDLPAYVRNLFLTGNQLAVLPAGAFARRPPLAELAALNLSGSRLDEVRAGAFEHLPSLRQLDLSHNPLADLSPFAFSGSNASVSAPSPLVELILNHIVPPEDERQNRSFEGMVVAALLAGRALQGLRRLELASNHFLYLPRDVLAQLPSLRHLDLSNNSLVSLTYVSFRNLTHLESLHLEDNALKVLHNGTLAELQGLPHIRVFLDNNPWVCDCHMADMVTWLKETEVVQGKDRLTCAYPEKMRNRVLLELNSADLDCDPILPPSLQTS
assay_details: ELISA, 5T4-His coated on the plate

binder	binding result
L1D8-CR11-C (antibody, V domains shown, Mouse VH and VL fused to human IgG1 heavy and kappa light constant regions; also called chimeric version of L1D8-CR11; LID8-CR11) VH: QVQLQQSGAELMKPGASLKLSCKATGYTFTGYWIEWVKQRPGHGLEWIGEILPGRSSTNYNERFKGKAIFTADTSSNTAYMQLSSLTTEDSAIYYCARGRRDFDYWGQGTTITVSS VL: SIVMTQTPKFLPVSAGDRVTMTCKASQSVGNNVAWYQQKPGQSPKVLIYDASNRYTGVPDRFTGSGSGTDFTFTISSVQVEDLAVYFCQQYYSSPPTFGAGTKLELK	binds
L1D8-CR21-C (antibody, V domains shown, Mouse VH and VL fused to human IgG1 heavy and kappa light constant regions; also called chimeric version of L1D8-CR21; LID8-CR21) VH: QVQLQQSGAELMKPGASLKLSCKATGYTFTGSWIEWVKQRPGHGLEWIGEILPGRSSTNYNERFKGKAIFTADTSSNTAYMQLSSLTTEDSAIYYCARGRRDFDYWGQGTTITVSS VL: SIVMTQTPKFLPVSAGDRVTMTCKASQSVGNNVAWYQQKPGQSPKVLIYDASNRYTGVPDRFTGSGSGTDFTFTISSVQVEDLAVYFCQQYYSSPPTFGAGTKLELK	binds
